FYI, the data here is from patent US8273778B2.

# EXPERIMENTAL SYSTEM: UGMmyco (Mycobacterium tuberculosis, UniProt P9WIQ1)
# Sequence (P9WIQ1 whole entry): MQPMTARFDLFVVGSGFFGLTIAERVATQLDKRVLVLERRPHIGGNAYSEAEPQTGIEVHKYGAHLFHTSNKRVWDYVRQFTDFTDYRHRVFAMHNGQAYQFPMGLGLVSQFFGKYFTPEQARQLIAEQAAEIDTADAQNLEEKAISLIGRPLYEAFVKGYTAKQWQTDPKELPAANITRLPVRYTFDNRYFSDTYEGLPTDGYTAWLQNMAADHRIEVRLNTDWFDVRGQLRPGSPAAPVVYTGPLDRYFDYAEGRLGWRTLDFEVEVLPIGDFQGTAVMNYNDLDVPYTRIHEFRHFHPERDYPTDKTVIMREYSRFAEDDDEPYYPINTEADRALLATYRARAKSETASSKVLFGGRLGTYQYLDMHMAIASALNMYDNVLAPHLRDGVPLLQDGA
ASSAY ENDPOINT: Ki (µM)
Please give a number only; it is taken to be in µM.

stdin: So what's the measured Ki for this one? O=C(O)C(Cc1ccc(Cl)cc1)Nc1nc(-c2ccc(Cl)cc2Cl)cs1 (stereo not shown)
stdout: 5.3

----------
Quick list: pKd per entry.
# EXPERIMENTAL SYSTEM: UGM from Klebsiella pneumoniae (UGMkleb) (Klebsiella pneumoniae, UniProt Q48485)
# Sequence (Q48485 24-384): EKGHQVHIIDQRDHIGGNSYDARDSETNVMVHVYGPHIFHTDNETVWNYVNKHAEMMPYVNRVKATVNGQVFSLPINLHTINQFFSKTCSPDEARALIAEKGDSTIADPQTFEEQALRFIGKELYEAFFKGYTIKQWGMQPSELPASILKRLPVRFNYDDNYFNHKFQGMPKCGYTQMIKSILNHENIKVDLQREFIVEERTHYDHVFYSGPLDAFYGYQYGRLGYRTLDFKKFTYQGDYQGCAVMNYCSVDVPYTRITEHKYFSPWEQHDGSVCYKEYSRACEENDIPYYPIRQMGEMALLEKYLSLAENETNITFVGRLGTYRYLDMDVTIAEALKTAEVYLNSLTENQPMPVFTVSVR
# ASSAY: Fluorescence polarization binding / inhibition assay, UGMkleb
# ASSAY SETUP: Table 2, 50 mM sodium phosphate pH 7.0, 25° C.; read-out: Kd (UMGkleb)
In simple prose, pKd is minus the logarithm base ten of a concentration in moles per litre.

# example entries with known answers
1. O=c1ccn(C2OC(COP(=O)([O-])OP(=O)(O)OCCCCCCCCNC(=S)Nc3cccc4ccccc34)C(O)C2O)c(=O)[nH]1.[Na+] (centres unmarked) [Compound 7, UDP-octanolamine-naphthyl conjugate] : 6.23
2. O=c1ccn([C@@H]2O[C@H](COP(=O)(O)OP(=O)(O)O)[C@@H](O)[C@H]2O)c(=O)[nH]1 [UDP, uridine 5′-diphosphate, reference compound] : 4.59
3. O=C(O)c1cc(NC(=S)NCCOCCOCCOCCOP(=O)(O)OP(=O)(O)OCC2OC(n3ccc(=O)[nH]c3=O)C(O)C2O)ccc1-c1c2ccc(=O)cc-2oc2cc(O)ccc12 (centres unmarked) : 5.92

stdin: So what's the measured pKd for this one? O=C(O)c1cc(NC(=S)NCCOCCOCCOP(=O)(O)OP(=O)(O)OCC2OC(n3ccc(=O)[nH]c3=O)C(O)C2O)ccc1-c1c2ccc(=O)cc-2oc2cc(O)ccc12 (centres unmarked)
stdout: 6.12

----------
# EXPERIMENTAL SYSTEM: UniProtKB P9WIQ1
# ASSAY: Fluorescence polarization binding / inhibition assay, UGMmyco
# ASSAY SETUP: Kd (UMGmyco) [μM], Table 2, 50 mM sodium phosphate pH 7.0, 25° C.
Quick list: Kd per entry.
Please give a number only; it is taken to be in µM.

1) O=C(O)c1cc(NC(=S)NCCOCCOCCOCCOP(=O)(O)OP(=O)(O)OCC2OC(n3ccc(=O)[nH]c3=O)C(O)C2O)ccc1-c1c2ccc(=O)cc-2oc2cc(O)ccc12 (centres unmarked) [Compound 5g] : 1.07

stdin: Query the reported Kd for UniProtKB P9WIQ1; item: O=c1ccn(C2OC(COP(=O)([O-])OP(=O)(O)OCCCCCCCCNC(=S)Nc3cccc4ccccc34)C(O)C2O)c(=O)[nH]1.[Na+] (centres unmarked) [Compound 7, UDP-octanolamine-naphthyl conjugate]
stdout: 0.61

stdin: Query the reported Kd for UniProtKB P9WIQ1; item: O=C(O)c1cc(NC(=S)NCCOCCOCCOP(=O)(O)OP(=O)(O)OCC2OC(n3ccc(=O)[nH]c3=O)C(O)C2O)ccc1-c1c2ccc(=O)cc-2oc2cc(O)ccc12 (centres unmarked) [Compound 5f]
stdout: 0.575

stdin: Query the reported Kd for UniProtKB P9WIQ1; item: O=c1ccn([C@@H]2O[C@H](COP(=O)(O)OP(=O)(O)O)[C@@H](O)[C@H]2O)c(=O)[nH]1 [UDP, uridine 5′-diphosphate, reference compound]
stdout: 15.1
